These measurements were taken from PubChem BioAssay AID624405.

# protocol-text: rescue of simvastatin-induced ATP loss – cell-based, C2C12 myotubes, ATP luminescence, cherry pick, dose response (AID 624405);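 further: myotubes are challenged with simvastatin at 10 µM to lower ATP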
# conditions: 48 h, scaled: DMSO wells 0, geranylgeraniol wells 100; series mostly up to 19.5 µM
Out of some 1,900 compounds screened, about 250 (13%) were called active. Not shown: some 4% with an inconclusive outcome. A selection follows. Results with a measured potency or affinity are listed apart.
readout: outcome

// solved cases for outcome follow
COc1ccc(CN(C)C[C@H]2OCCCC[C@H](C)Oc3ccc(NC(=O)NC(C)C)cc3C(=O)N([C@@H](C)CO)C[C@H]2C)cc1	inactive
Cc1ccc(C2C=C(c3ccccc3OC(F)F)Nc3ncnn32)cc1 (stereo not given)	inactive
CCOC(=O)c1ccc(NC(=O)N2CCCCC2)cc1	inactive
C[C@H]1CN([C@@H](C)CO)C(=O)c2cc(NC(=O)C3CC3)ccc2O[C@@H]1CN(C)CC1CCCCC1	inactive

(Q) Fill in reported outcome for this entry: O=C(NCC(=O)N(Cc1ccccc1)C(C(=O)NC1CCCCC1)c1ccco1)c1ccco1 (stereo not given)
(A) inactive

###

# protocol-text: rescue of simvastatin-induced ATP loss – cell-based, C2C12 myotubes, ATP luminescence, cherry pick, dose response (AID 624405);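 further: myotubes are challenged with simvastatin at 10 µM to lower ATP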
# conditions: 48 h, scaled: DMSO wells 0, geranylgeraniol wells 100; series mostly up to 19.5 µM
The whole screen tested about 1,900 compounds, of which about 250 (13%) were called active. Inconclusive results (about 4%) are left out. The list is a sample of the results. Measured potencies and affinities stand elsewhere.
readout: outcome

Reference set (8 entries):
O=C(CSc1nc2ccccc2[nH]1)Nc1ccc2c(c1)OCCO2	inactive
O=C(c1ccc(F)cc1)N1CCC(N2CCCCCC2)CC1	inactive
O=C(NCc1ccco1)c1ccccc1NS(=O)(=O)c1ccc2c(c1)OCCO2	inactive
COc1ccc(OC)c(CNC(=O)C2CCCN(c3nc4ccccc4o3)C2)c1 (stereo not given)	inactive
O=c1cc(CN2CCN(Cc3ccccc3)CC2)c2cc3c(cc2o1)CCC3	inactive
CCCS(=O)(=O)N1CCCC(C(=O)N2CCN(c3ccccc3)CC2)C1 (stereo not given)	inactive
C[C@@H]1CN([C@H](C)CO)C(=O)Cc2cc(NC(=O)Nc3cccc4ccccc34)ccc2O[C@H]1CN(C)Cc1ccc(Cl)c(Cl)c1	inactive
O=C(CSCc1ccc(Cl)cc1)N/N=C/c1ccccc1	inactive

(Q) Give the value of outcome reported for the following: CCC12CC3CC(C1)CC(C(=O)NNC(N)=O)(C3)C2
(A) inactive

(Q) Please supply the value of reported outcome for the item C[C@@H]1CN([C@H](C)CO)C(=O)c2cccc(NC(=O)Nc3ccccc3)c2O[C@@H]1CN(C)S(=O)(=O)c1ccccc1
(A) inactive

###

# protocol-text: rescue of simvastatin-induced ATP loss – cell-based, C2C12 myotubes, ATP luminescence, cherry pick, dose response (AID 624405);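 further: myotubes are challenged with simvastatin at 10 µM to lower ATP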
# conditions: 48 h, scaled: DMSO wells 0, geranylgeraniol wells 100; series mostly up to 19.5 µM
Among all 1,900 compounds or so, about 250 (13%) were called active. Roughly 4% stayed inconclusive and do not appear here. These entries were drawn from the full list. Results with a measured potency or affinity are listed apart.
readout: outcome

C[C@@H]1CN([C@H](C)CO)C(=O)Cc2cc(NS(C)(=O)=O)ccc2O[C@@H]1CN(C)Cc1ccc(Cl)c(Cl)c1	inactive
C[C@@H]1CN([C@@H](C)CO)C(=O)c2cc(C#CC3CCCCC3)cnc2O[C@@H]1CN(C)C(=O)C1CCCCC1	inactive
Cc1ccc(S(=O)(=O)Nc2ccc3c(c2)CC(=O)N([C@@H](C)CO)C[C@@H](C)[C@@H](CN(C)Cc2ccc(Cl)c(Cl)c2)O3)cc1	inactive
CCN(CC)C(=O)c1ccc(NS(=O)(=O)c2ccccc2)cc1	inactive
CC1CCCCN1S(=O)(=O)c1ccc(C(=O)Nc2sccc2C(N)=O)cc1 (stereo not drawn)	inactive

(Q) Tell me its outcome given Cc1noc(C)c1S(=O)(=O)Nc1ccc2c(c1)C(=O)N([C@H](C)CO)C[C@H](C)[C@H](CN(C)S(=O)(=O)c1cccs1)OCCCC[C@H](C)O2 as the entry.
(A) inactive

(Q) Output measured outcome for this item: CCN1CCN(c2ccc(NC(=O)Cc3ccccc3)cc2)CC1
(A) inactive

(Q) Assign outcome to the following record: O=C(CSc1nnnn1-c1cccc2c1CCCC2)N1CCCCC1
(A) inactive

(Q) Return value of outcome for input Cc1ccc(S(=O)(=O)N(C)C[C@@H]2Oc3ncc(C#Cc4cccc(F)c4)cc3C(=O)N([C@H](C)CO)C[C@@H]2C)cc1 , no commentary.
(A) inactive
